Target: ROCK1 (Homo sapiens (Human))
endpoint-label: IC50 (µM)

O=C(Nc1cnoc1)c1cc2ccc(-c3nccc(Nc4ccc5[nH]ncc5c4)n3)cc2[nH]1
1.99
N#CC1CCN(C(=O)c2cc3ccc(-c4nccc(Nc5ccc(-c6cn[nH]c6)cc5)n4)cc3[nH]2)C1 (stereo not shown)
3
O=C(NC1CCN(c2ccncc2Cl)CC1)c1cc2ccc(-c3nccc(Nc4ccc(-c5cn[nH]c5)cc4)n3)cc2[nH]1 [TDI01847B]
3.38

A. CN(C(=O)c1cc2ccc(-c3nccc(Nc4ccc(-c5cn[nH]c5)cc4)n3)cc2[nH]1)C1CCOCC1
B. CC(C)NC(=O)c1cc2ccc(-c3nc(Nc4ccc5[nH]ncc5c4)c4scnc4n3)cc2[nH]1
IN: Among A and B , whose measured IC50 is the smaller figure? Bench note: the answer is the label of the chosen record.
OUT: B

====

Molecular target: ROCK1 (Homo sapiens (Human), UniProt Q13464)
Sequence (Q13464 whole entry, species assumed): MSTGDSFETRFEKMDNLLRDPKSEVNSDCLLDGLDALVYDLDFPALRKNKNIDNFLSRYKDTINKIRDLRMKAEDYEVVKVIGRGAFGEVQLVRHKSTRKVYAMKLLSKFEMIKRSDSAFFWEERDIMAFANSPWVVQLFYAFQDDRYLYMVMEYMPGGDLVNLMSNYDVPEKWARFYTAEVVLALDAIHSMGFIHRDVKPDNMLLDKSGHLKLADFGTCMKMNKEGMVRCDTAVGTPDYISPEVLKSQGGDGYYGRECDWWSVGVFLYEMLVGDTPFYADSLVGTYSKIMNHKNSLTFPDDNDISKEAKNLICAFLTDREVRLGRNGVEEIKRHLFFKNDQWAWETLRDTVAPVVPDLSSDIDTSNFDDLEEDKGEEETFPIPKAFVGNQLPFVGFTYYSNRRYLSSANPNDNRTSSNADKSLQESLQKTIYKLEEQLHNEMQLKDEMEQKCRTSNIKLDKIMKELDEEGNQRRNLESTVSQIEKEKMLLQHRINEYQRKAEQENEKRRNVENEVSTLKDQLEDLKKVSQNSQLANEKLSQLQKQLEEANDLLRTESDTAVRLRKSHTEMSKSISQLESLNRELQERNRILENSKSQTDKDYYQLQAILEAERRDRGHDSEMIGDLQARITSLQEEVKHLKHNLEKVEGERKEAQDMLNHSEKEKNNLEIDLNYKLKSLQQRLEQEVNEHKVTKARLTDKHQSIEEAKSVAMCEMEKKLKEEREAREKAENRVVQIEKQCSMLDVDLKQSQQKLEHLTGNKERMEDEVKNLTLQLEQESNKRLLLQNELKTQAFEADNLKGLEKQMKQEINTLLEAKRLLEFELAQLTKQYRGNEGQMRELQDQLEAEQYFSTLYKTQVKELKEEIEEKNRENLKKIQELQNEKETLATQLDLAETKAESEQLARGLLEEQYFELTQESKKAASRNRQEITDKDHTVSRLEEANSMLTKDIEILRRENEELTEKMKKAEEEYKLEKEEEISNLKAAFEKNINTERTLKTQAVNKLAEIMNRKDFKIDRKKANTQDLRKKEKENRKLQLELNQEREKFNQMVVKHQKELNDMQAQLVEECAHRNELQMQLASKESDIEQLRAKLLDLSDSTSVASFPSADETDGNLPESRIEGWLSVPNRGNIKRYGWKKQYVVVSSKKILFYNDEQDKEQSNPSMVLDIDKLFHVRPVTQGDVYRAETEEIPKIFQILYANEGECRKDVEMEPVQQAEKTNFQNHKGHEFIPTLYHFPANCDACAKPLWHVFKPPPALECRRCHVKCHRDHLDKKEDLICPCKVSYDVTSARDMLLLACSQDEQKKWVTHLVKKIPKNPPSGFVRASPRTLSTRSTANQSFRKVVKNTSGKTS
IC50 by entry:

These solved cases illustrate the format of a correct answer.
c1cnc(-c2cc3ccc(-c4nccc(Nc5ccc(-c6cn[nH]c6)cc5)n4)cc3[nH]2)nc1
> 10 µM
COc1cc(Nc2ccnc(-c3ccc4cc(C(=O)N(C)C)[nH]c4c3)n2)ccc1-c1cn[nH]c1
> 10 µM
O=C(Nc1ccnnc1)c1cc2ccc(-c3ncc(F)c(Nc4ccc5[nH]ncc5c4)n3)cc2[nH]1
> 10 µM
CNC(=O)c1cc2ccc(-c3nccc(Nc4ccc5[nH]ncc5c4)n3)cc2s1
> 10 µM
Cn1c(C(=O)N2CC(O)(C(F)(F)F)C2)cc2ccc(-c3nccc(Nc4ccc(-c5cn[nH]c5)cc4)n3)cc21
1.89 µM

Assay ROCK1 (Homo sapiens (Human), UniProt Q13464), sample O=C(C1CC(F)(F)C1)N1CCc2cc(-c3ncc(F)c(Nc4ccc(-c5cn[nH]c5)cc4)n3)ccc2C1 , IC50 read: > 10 µM

Reading of IC50 for CC(C)NC(=O)C1Cc2ccc(-c3nccc(Nc4ccc5[nH]ncc5c4)n3)cc2N1 (stereo not drawn) with ROCK1 (Homo sapiens (Human), UniProt Q13464): 4.84 µM

// returns IC50 for Cn1c(-n2ccnc2)cc2ccc(-c3nccc(Nc4ccc(-c5cn[nH]c5)cc4)n3)cc21 [TDI01876B] with ROCK1 (Homo sapiens (Human), UniProt Q13464); value = > 10 µM

Entry Cn1c(C(=O)N2CC(F)(F)C2)cc2ccc(-c3ncc(F)c(Nc4ccc(-c5cn[nH]c5)cc4)n3)cc21 , tested on ROCK1 (Homo sapiens (Human), UniProt Q13464), has a reported IC50 of > 10 µM

ROCK1 (Homo sapiens (Human), UniProt Q13464) data for O=C(O)c1cnc(-c2ccc3c(c2)CN(C(=O)C2CC(F)(F)C2)C3)nc1Nc1ccc(-c2cn[nH]c2)cc1 [TDI01567C] ; its IC50: > 10 µM

Item O=C(NC1CCCN(c2ccncc2)C1)c1cc2ccc(-c3nccc(Nc4ccc(-c5cn[nH]c5)cc4)n3)cc2[nH]1 (stereo not drawn) ; assay system ROCK1 (Homo sapiens (Human), UniProt Q13464); IC50 reported as 0.139 µM

Cn1c(C(=O)N2CCC(F)(F)C2)cc2ccc(-c3nccc(Nc4ccc(-c5cn[nH]c5)cc4)n3)cc21 tested on ROCK1 (Homo sapiens (Human), UniProt Q13464) gave IC50: 6.84 µM

Test item Cn1c(-c2nccs2)cc2ccc(-c3nccc(Nc4ccc(-c5cn[nH]c5)cc4)n3)cc21 ; ROCK1 (Homo sapiens (Human), UniProt Q13464); reported IC50 was 4.07 µM

====

Biological target: UniProt Q13464
Experiment: ROCK1 kinase IC50 assay (biological test method similar to the ROCK2 assay)
Assay type: biochemical
pIC50: −log10 of the molar value.
endpoint-label: pIC50

The cases that follow already have their pIC50 on record.
Cn1c(C(=O)N2C[C@@H](O)[C@H](F)C2)cc2ccc(-c3nccc(Nc4ccc(-c5cn[nH]c5)cc4)n3)cc21
5.52
O=C(Nc1ccncc1Cl)c1cc2ccc(-c3nccc(Nc4ccc(-c5cn[nH]c5)cc4)n3)cc2[nH]1
< 5.00
CN(C(=O)c1cc2ccc(-c3nccc(Nc4ccc(-c5cn[nH]c5)cc4)n3)cc2[nH]1)C1CC(O)C1 (centres unmarked)
5.27
CC(C)NC(=O)c1cc2ccc(-c3nccc(Nc4ccc5[nH]ncc5c4)n3)cc2s1
6.06

According to the records, this molecule O=C(c1cc2ccc(-c3nccc(Nc4ccc(-c5cn[nH]c5)cc4)n3)cc2[nH]1)N1CCS(=O)(=O)CC1 displays pIC50 of < 5.00

Noted for O=C(c1cc2ccc(-c3nccc(Nc4ccc(-c5cn[nH]c5)cc4)n3)cc2[nH]1)N1CCC1 : its pIC50 reads 5.10

Recorded result, Cc1cnc(-c2ccc3cc(C(=O)Nc4ccnnc4)[nH]c3c2)nc1Nc1ccc2[nH]ncc2c1 , pIC50: < 5.00

// sample Cn1c(C(=O)N2CC(F)(F)C2)cc2ccc(-c3nc(Nc4ccc(-c5cn[nH]c5)cc4)c4ccccc4n3)cc21 , its pIC50 was < 5.00

Recorded pIC50 (molecule O=C(Nc1cnncc1Cl)c1cc2ccc(-c3nccc(Nc4ccc5[nH]ncc5c4)n3)cc2[nH]1 ): 6.02

====

Target: ROCK2 (Homo sapiens, UniProt O75116)
endpoint-label: IC50 (nM)

Completed entries (count: 5):
C[C@@H](NC(=O)c1cc2ccc(-c3nccc(Nc4ccc5[nH]ncc5c4)n3)cc2[nH]1)c1ccncc1
132
c1cnc(-c2cc3ccc(-c4nccc(Nc5ccc(-c6cn[nH]c6)cc5)n4)cc3[nH]2)nc1
46
O=C(C1CC(O)C1)N1Cc2ccc(-c3nccc(Nc4ccc(-c5cn[nH]c5)cc4)n3)cc2C1 (stereo not drawn)
205
O=C(Nc1ccncc1Cl)N1Cc2ccc(-c3nccc(Nc4ccc5[nH]ncc5c4)n3)cc2C1
64
O=C(C1CC(F)(F)C1)N1CCc2cc(-c3ncc(F)c(Nc4ccc(-c5cn[nH]c5)cc4)n3)ccc21 [TDI01618A]
129

a. CC(C)NC(=O)c1cc2ccc(-c3nc(Nc4ccc(-c5cn[nH]c5)cc4)c4sccc4n3)cc2s1
b. Cn1c(C(=O)N2CCC(F)(F)C2)cc2ccc(-c3nccc(Nc4ccc(-c5cn[nH]c5)cc4)n3)cc21
c. c1cc(Nc2ccc(-c3cn[nH]c3)cc2)nc(-c2ccc3cc(-c4nccs4)[nH]c3c2)n1
IN: Ordering: ascending IC50. Labels, requested order.
OUT: c, b, a

I. O=C(c1cc2ccc(-c3nc(Nc4ccc(-c5cn[nH]c5)cc4)c4sccc4n3)cc2[nH]1)N1CC(F)(F)C1
II. CC(NC(=O)c1cc2ccc(-c3nccc(Nc4ccc(-c5cn[nH]c5)cc4)n3)cc2n1C)C(F)(F)F (stereo not drawn)
III. CC(C)NC(=O)N1Cc2ccc(-c3nc(Nc4ccc(-c5cn[nH]c5)cc4)c4occc4n3)cc2C1
IN: # ascending order, key=IC50 Returns: the labels listed in the requested order.
OUT: II, III, I
(II: 6 nM, III: 41 nM, I: 174 nM)

1. Cn1c(C(=O)N2CC(F)(F)C2)cc2ccc(-c3ncc(C(F)(F)F)c(Nc4ccc(-c5cn[nH]c5)cc4)n3)cc21
2. COc1cnc(-c2ccc3cc(C(=O)Nc4ccnnc4)[nH]c3c2)nc1Nc1ccc2[nH]ncc2c1
3. CC(=O)N1Cc2nc(-c3ccc4c(c3)CN(C(=O)C3CC(F)(F)C3)C4)nc(Nc3ccc(-c4cn[nH]c4)cc3)c2C1
IN: Sort by IC50, descending. // list labels; follow requested order
OUT: 1, 2, 3
(1: 238 nM, 2: 90 nM, 3: 25 nM)

====

Reported IC50 values, ROCK2 (Homo sapiens, UniProt O75116).
endpoint-label: IC50 (nM)

Recorded IC50, per entry:
O=C(c1cc2ccc(-c3ncnc(Nc4ccc(-c5cn[nH]c5)cc4)n3)cc2[nH]1)N1CC(F)(F)C1 [TDI01581]
28
CC(C)NC(=O)c1cc2ccc(-c3nc(Nc4ccc(-c5cn[nH]c5)cc4)c4ccccc4n3)cc2[nH]1 [TDI01862]
382
Cn1c(C(=O)N2C[C@@H](F)[C@@H](F)C2)cc2ccc(-c3nccc(Nc4ccc(-c5cn[nH]c5)cc4)n3)cc21 [TDI01514]
49
CC(C)NC(=O)c1cc2ccc(-c3nc(Nc4ccc(-c5cn[nH]c5)cc4)c4occc4n3)cc2[nH]1 [TDI01864]
30

a. O=C(Nc1ccncc1F)c1cc2ccc(-c3nccc(Nc4ccc5[nH]ncc5c4)n3)cc2[nH]1 [TDI01394]
b. O=C(Nc1ccnnc1)c1cc2ccc(-c3ncc(Cl)c(Nc4ccc5[nH]ncc5c4)n3)cc2[nH]1 [TDI01844]
c. c1ccc2sc(-c3cc4ccc(-c5nccc(Nc6ccc7[nH]ncc7c6)n5)cc4[nH]3)nc2c1 [TDI01881]
d. O=C(NC1CCN(c2ccncc2)CC1)c1cc2ccc(-c3nccc(Nc4ccc5[nH]ncc5c4)n3)cc2[nH]1 [TDI01814]
e. COc1cc(Nc2ccc3[nH]ncc3c2)nc(-c2ccc3cc(C(=O)Nc4ccnnc4)[nH]c3c2)n1 [TDI01801]
IN: Rank descending by IC50. # list labels per requested ordering
OUT: b, c, e, a, d
(b: 370 nM, c: 161 nM, e: 68 nM, a: 28 nM, d: 18 nM)

P. Cn1c(C(=O)N2CC(F)(CF)C2)cc2ccc(-c3nccc(Nc4ccc(-c5cn[nH]c5)cc4)n3)cc21 [TDI01524]
Q. O=C(c1cc2ccc(-c3nccc(Nc4ccc(-c5cn[nH]c5)cc4)n3)cc2[nH]1)N1CC[C@H](O)C1 [TDI01438]
IN: Compare the recorded IC50 of P and Q ; state which is larger. Select an item and report its label.
OUT: Q
(Q: 402 nM, P: 30 nM)

a. Cn1c(C(=O)N2CC3C(C2)C3(F)F)cc2ccc(-c3nccc(Nc4ccc(-c5cn[nH]c5)cc4)n3)cc21 (stereo not drawn) [TDI01512]
b. O=C(c1cc2ccc(-c3nc(Nc4ccc(-c5cn[nH]c5)cc4)c4sccc4n3)cc2s1)N1CC(F)(F)C1 [TDI01525]
IN: Min IC50? a | b // respond with label for picked entry
OUT: a
(a: 22 nM, b: 335 nM)
